Where these numbers come from: ChEMBL document CHEMBL1149426

Biological target: D(2) dopamine receptor (Homo sapiens)
Sequence (P14416 whole entry): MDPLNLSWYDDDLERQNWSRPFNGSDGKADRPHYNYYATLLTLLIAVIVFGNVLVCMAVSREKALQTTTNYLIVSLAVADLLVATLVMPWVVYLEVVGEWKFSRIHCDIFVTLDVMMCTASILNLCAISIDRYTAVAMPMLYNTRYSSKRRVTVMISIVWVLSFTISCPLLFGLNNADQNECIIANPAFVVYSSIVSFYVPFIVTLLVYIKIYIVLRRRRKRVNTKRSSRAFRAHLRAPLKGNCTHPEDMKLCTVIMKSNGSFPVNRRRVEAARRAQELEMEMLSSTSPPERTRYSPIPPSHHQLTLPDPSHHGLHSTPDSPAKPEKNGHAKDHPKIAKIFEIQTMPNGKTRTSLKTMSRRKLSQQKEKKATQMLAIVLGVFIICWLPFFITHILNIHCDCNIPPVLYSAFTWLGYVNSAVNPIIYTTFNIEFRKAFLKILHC
Assay: Binding affinity to human cloned dopamine D2 receptor
Outcome Measure: Ki (nM)
Give bare numbers, in nM.

| Molecule | System Name | Units Label | Ki |
| --- | --- | --- | --- |
| CC(C)(C)c1nc(N2CCN(CCCCN3CCC(=O)CCC3=O)CC2)cc(C(F)(F)F)n1 | D(2) dopamine receptor (Homo sapiens) | nM | 65 |
| C[C@@H](CCCN1C(=O)CCc2ccccc21)N1CCN(c2cc(C(F)(F)F)nc(C(C)(C)C)n2)CC1 | D(2) dopamine receptor (Homo sapiens) | nM | 289 |
| C[C@H](CCN1CCN(c2cc(C(F)(F)F)nc(C(C)(C)C)n2)CC1)CN1C(=O)CCc2ccccc21 | D(2) dopamine receptor (Homo sapiens) | nM | 261 |
| CC(C)(C)c1nc(N2CCN(C/C=C/CN3C(=O)CCc4ccccc43)CC2)cc(C(F)(F)F)n1 | D(2) dopamine receptor (Homo sapiens) | nM | 254 |
| CC(C)(C)c1nc(N2CCN(CCCCN3C(=O)COc4ccccc43)CC2)cc(C(F)(F)F)n1 | D(2) dopamine receptor (Homo sapiens) | nM | 354 |
| CC(C)(C)c1nc(N2CCN(CCCCN3C(=O)CCc4ccccc43)CC2)cc(C(F)(F)F)n1 | D(2) dopamine receptor (Homo sapiens) | nM | 126 |
| CC(C)(C)c1nc(N2CCN(CCCCN3C(=O)CC(=O)c4ccccc43)CC2)cc(C(F)(F)F)n1 | D(2) dopamine receptor (Homo sapiens) | nM | 142 |
| COc1cc2c(cc1OC)N(CCCCN1CCN(c3cc(C(F)(F)F)nc(C(C)(C)C)n3)CC1)C(=O)CCC2=O | D(2) dopamine receptor (Homo sapiens) | nM | 467 |

Required: Ki, one value per compound below.
1. CC(C)(C)c1nc(N2CCN(CCCCN3C(=O)CCCc4ccccc43)CC2)cc(C(F)(F)F)n1
2. CC(C)(C)c1nc(N2CCN(CCCCn3c(=O)ccc4ccccc43)CC2)cc(C(F)(F)F)n1
3. CC(C)(C)c1nc(N2CCN(CCCCN3C(=O)CCC(=O)c4ccccc43)CC2)cc(C(F)(F)F)n1
4. COc1cccc2c1CCCC(=O)N2CCCCN1CCN(c2cc(C(F)(F)F)nc(C(C)(C)C)n2)CC1

Result block:
1. 118
2. 151
3. 246
4. 243

Required: Ki, one value per compound below.
1. CC(C)(C)c1nc(N2CCN(CCCCN3C(=O)CCCc4c(O)cccc43)CC2)cc(C(F)(F)F)n1
2. CC(C)(C)c1nc(N2CCN(CCCCN3C(=O)CCSc4ccccc43)CC2)cc(C(F)(F)F)n1
3. C/C(=C\CN1CCN(c2cc(C(F)(F)F)nc(C(C)(C)C)n2)CC1)CN1C(=O)CCc2ccccc21

Result block:
93
83
669

###

Assay: Inhibitory activity against GABA receptor
pIC50: −log10 of the molar value.
Outcome Measure: pIC50

Query CC(C)(C)c1nc(N2CCN(CCCCN3C(=O)CCC(=O)c4ccccc43)CC2)cc(C(F)(F)F)n1 yields pIC50 of < 5.00

###

Assay: Permeability across Caco-2 cell membrane
Format: ADME, cell-based
Conditions: human
Outcome Measure: Papp (×10⁻⁶ cm/s)
One number for each entry, in ×10⁻⁶ cm/s.

Query CC(C)(C)c1nc(N2CCN(CCCCN3C(=O)CCC(=O)c4ccccc43)CC2)cc(C(F)(F)F)n1 yields Papp of 0.33
